Test system: hiPSCs trilineage differentiation (cardiomyocytes, hepatocytes, neural rosette-like cells)
Measurement Notes: ReproTracker trilineage differentiation, overall teratogenicity prediction
Test Parameters: lowest tested concentration with significant decrease of at least one biomarker, trilineage assay; 'N.d. up to x' given as > x
Reported Metric: ReproTracker results LOAEL

INSERT INTO measurements (compound, reported_metric, recorded_measurement) VALUES
  ('CCCC(CCC)C(=O)O', 'ReproTracker results LOAEL', '250 µM'),
  ('N[C@@H](CC(=O)N1CCn2c(nnc2C(F)(F)F)C1)Cc1cc(F)c(F)cc1F', 'ReproTracker results LOAEL', 'N.d. up to 1000 µM'),
  ('CC(C)Cc1ccc(C(C)C(=O)O)cc1 (stereo not shown)', 'ReproTracker results LOAEL', '≤31.3 µM'),
  ('CS(=O)(=O)c1ccc(C(=O)Nc2ccc(Cl)c(-c3ccccn3)c2)c(Cl)c1', 'ReproTracker results LOAEL', '≤1 µM'),
  ('ClC1(Cl)C2(Cl)C3(Cl)C4(Cl)C(Cl)(Cl)C5(Cl)C3(Cl)C1(Cl)C5(Cl)C24Cl (stereo not shown)', 'ReproTracker results LOAEL', '0.0049 µM'),
  ('CO', 'ReproTracker results LOAEL', 'N.d. up to 1000 µM');

Data request: Give recorded ReproTracker results LOAEL with hiPSCs trilineage differentiation (cardiomyocytes, hepatocytes, neural rosette-like cells) for the following compound: O=C1CCC(N2C(=O)c3ccccc3C2=O)C(=O)N1 (stereo not shown) [Thalidomide]
Data returned: ≤0.08 µM

Data request: Item: `CN1C(=O)OC(C)(C)C1=O` Test system: hiPSCs trilineage differentiation (cardiomyocytes, hepatocytes, neural rosette-like cells) Read-out: ReproTracker results LOAEL Value: ?
Data returned: N.d. up to 1000 µM

###

System: hiPSCs differentiating into cardiomyocyte-like cells
Measurement Notes: ReproTracker cardiomyocyte differentiation assay
Reported Metric: ReproTracker results Cardiomyocyte-like cells

Sample records with ReproTracker results Cardiomyocyte-like cells:
INSERT INTO measurements (compound, recorded_measurement) VALUES
  ('NC(=O)NO [Hydroxyurea]', 'Negative'),
  ('C[Si](Cn1cncn1)(c1ccc(F)cc1)c1ccc(F)cc1 [Flusilazole]', 'Positive'),
  ('CCCC(CCC)C(=O)O [Valproic acid]', 'Negative'),
  ('C[C@@H]1C[C@H]2[C@@H]3CCC4=CC(=O)C=C[C@]4(C)[C@@]3(F)[C@@H](O)C[C@]2(C)[C@@]1(O)C(=O)CO [Dexamethasone]', 'Negative'),
  ('NC(=O)c1ncn([C@@H]2O[C@H](CO)[C@@H](O)[C@H]2O)n1 [Ribavirin]', 'Negative');

Data request: Please state recorded ReproTracker results Cardiomyocyte-like cells (tested on hiPSCs differentiating into cardiomyocyte-like cells) of N.N.[Cl][Pt][Cl] [Cisplatin]
Data returned: Positive

Data request: Query ReproTracker results Cardiomyocyte-like cells on hiPSCs differentiating into cardiomyocyte-like cells for O=C1CCC(N2C(=O)c3ccccc3C2=O)C(=O)N1 (stereo not shown) [Thalidomide]
Data returned: Positive

Data request: GET /values?readout=ReproTracker results Cardiomyocyte-like cells&system=hiPSCs differentiating into cardiomyocyte-like cells&item= O=C1NC(=O)C(c2ccccc2)(c2ccccc2)N1 [Phenytoin]
Data returned: Negative

Data request: For hiPSCs differentiating into cardiomyocyte-like cells, provide ReproTracker results Cardiomyocyte-like cells of CC(C)Cc1ccc(C(C)C(=O)O)cc1 (stereo not shown) [Ibuprofen] please.
Data returned: Positive

Data request: Please tell me: ReproTracker results Cardiomyocyte-like cells of OC(Cn1cncn1)(Cn1cncn1)c1ccc(F)cc1F [Fluconazole] , system hiPSCs differentiating into cardiomyocyte-like cells?
Data returned: Negative
